B1: tRNA (parent)
chain: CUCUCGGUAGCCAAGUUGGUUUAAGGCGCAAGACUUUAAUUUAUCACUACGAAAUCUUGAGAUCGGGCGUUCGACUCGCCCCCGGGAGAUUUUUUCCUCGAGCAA

# Variants of: B1
# measurementNotes: nonsense suppression (GFP-seq) (ratio to wild type); higher = more function; SUP4oc tRNA, yeast GFP reporter sort-seq
Variants at the floor of the assay were thinned out.
experimentalEndpoint: nonsense suppression
The response must contain the number and no unit.

Here are 6 variants together with their reported answers.
>>> recordedresult("G78A C79G")
0.0629
>>> recordedresult("U16A U22G C79U")
0.208
>>> recordedresult("A13U A30U")
0.0763
>>> recordedresult("A13C C75G")
1.15
>>> recordedresult("A23G U55C")
0.0273
>>> recordedresult("A74U C79U")
0.0357

# return recorded nonsense suppression for entry U4C A9C G84A
0.0602

# return recorded nonsense suppression for entry C27A G78U
0.0309

# return recorded nonsense suppression for entry A9G A54U
0.196

# return recorded nonsense suppression for entry U21A A24U
0.184

# return recorded nonsense suppression for entry A13U C77U
0.0452

# return recorded nonsense suppression for entry C12A A31G
0.0261

# return recorded nonsense suppression for entry A33G U76C
0.0419

# return recorded nonsense suppression for entry A24C C79U
0.209

# return recorded nonsense suppression for entry U20G U21A
1.18

# return recorded nonsense suppression for entry U20C A31G
0.0336

# return recorded nonsense suppression for entry A13C A33U
0.0508

# return recorded nonsense suppression for entry G28C G67A
0.0635

# return recorded nonsense suppression for entry A9G G15U
0.0374
